The values you see were collected from PubChem BioAssay (Tox21).

assay: qHTS assay to identify small molecule antagonists of the estrogen related receptor (ERR) signaling pathway from Tox21 library (AID 1224848); settings: ERR reporter cell line, luciferase antagonist mode, 18 h; series mostly up to 92.4 µM; further: nearly all actives have a fitted effect of over 50% in size
Inconclusive results are not listed. The source made the active and inactive calls. The call rests on the fitted dose curve; in most records, active means well fitted inhibition curve with a large enough effect in the repeat runs; inconclusive means weak or mixed curves; inactive means no such curve, though single readings can be large or run the other way.
// one of active, inactive, no free text

These recorded examples may help you get a feel for the data.
* CCCCCCCC/C=C/CCCOC(C)=O | inactive
* ClC/C=C\CCl | inactive
* CCCCCCCCCCCCN(CCO)CCO | active
* Clc1ccc(C(Cn2ccnc2)OCc2c(Cl)cccc2Cl)c(Cl)c1 (centres undefined) | active
* O=C(c1ccccc1)c1cc(Cl)ccc1O | inactive

Field: outcome | Entry: `CCCOc1sc(C(=O)N2CCC(c3cc(CN)ccc3F)CC2)c(C)c1Br`
active

Field: outcome | Entry: Clc1ccc(C(Cn2ccnc2)OCc2ccsc2Cl)c(Cl)c1 (centres undefined)
active

Field: outcome | Entry: `C(=C/c1ccccc1)/c1ccccc1`
inactive

Field: outcome | Entry: `Cc1c(C)n(Cc2ccccc2)c2ccc(C(=O)OCCN(C)C)cc12`
inactive

Field: outcome | Entry: `CCOC(/C=C(\C)CCC=C(C)C)OCC`
inactive

Field: outcome | Entry: `CCCCCCOc1ccc(O)cc1`
inactive

Field: outcome | Entry: `CCCCOCC`
inactive

Field: outcome | Entry: CO[Si](CCC1CCC2OC2C1)(OC)OC (centres undefined)
inactive

Field: outcome | Entry: `C=CC(=O)OCCOCC(CC)(COCCOC(=O)C=C)COCCOC(=O)C=C`
active
